Kindly state growth for each of the entries shown.
- Tested on: NCI-H226 lung
- procedure.text: NCI-60 one-dose screen, 48 h (100 = growth as untreated, 0 = no growth, -100 = all killed)
- measurement.context: 10 µM unless noted
This is part of a sample that, as a whole, favours compounds with a hit. Of some 83,000 tested, about 20% had one in any assay. Active and inactive are the calls of the source. How the source made its calls: active means growth percent below 10; inactive means the rest.

INPUT: Any idea what its growth is? The compound is `CCCCNc1ccc(-c2ccc(NCCCC)cc2)cc1`
OUTPUT: 73.4% (inactive)

INPUT: Which growth is reported for this compound? CN1CCCN(C(c2ccccc2)c2ccc(Br)cc2)CC1 (centres undefined)
OUTPUT: 78.2% (inactive)

INPUT: Find the recorded growth belonging to `CC(=O)Oc1c(Cl)cccc1-c1ccccc1` and report it.
OUTPUT: 98.9% (inactive)

I would be grateful if you could provide growth for each of the following entries.
1. O=C(c1ccccc1)c1ccc(-c2ccc(O)cc2)cc1
2. CCOc1ccc(NC(=S)N2CCC(CCCC3CCN(C(=S)Nc4ccc(OCC)cc4)CC3)CC2)cc1

OUTPUT:
1. 89.3% (inactive)
2. 77.1% (inactive)

Each of the following entries comes with a recorded value; kindly state growth for each.
1. O=C(O)c1c[nH]c2ccccc2c1=O
2. CCOC(=O)Nc1nccs1
3. CC(=O)N(CCCCCCN(C(C)=O)C(C)=O)C(C)=O
4. OCCNc1ccccc1
5. CCOP(=O)(OCC)/C(=C\N1C(=O)CC(=O)NC1=S)C(=O)OC

OUTPUT:
1. 105% (inactive)
2. 99.6% (inactive)
3. 101% [100 µM] (inactive)
4. 97.7% (inactive)
5. 95.7% (inactive)

Could you report growth for every entry in the following list?
1. CCCCCCCCCCCCCCCCOc1ccccc1NC(=O)CC(C)=O
2. Clc1ccc(-c2noc(/C=C\c3ccccc3)n2)cc1
3. CCN(CC)CCCC(C)NC(=S)N/N=C(\C)c1ccccn1 (centres undefined)
4. CC1=CC(=Nc2ccc(N(C)C)cc2)C=C(C)C1=O
5. O=c1[nH]c(=O)c2cc(Cl)cc(Cl)c2[nH]1
6. C=C1C(=O)C2CCC1C2 (centres undefined)
7. O=c1nc(Nc2cccc(Cl)c2)oc2cc(Cl)oc(=O)c12

OUTPUT:
1. 105% (inactive)
2. 93.1% (inactive)
3. 33.2% (inactive)
4. 83.5% (inactive)
5. 96.8% (inactive)
6. 99.8% (inactive)
7. 94.9% (inactive)

###

For each record, write down the corresponding growth.
- System: SNB-19 CNS
- procedure.text: NCI-60 one-dose screen, 48 h (100 = growth as untreated, 0 = no growth, -100 = all killed)
- measurement.context: 10 µM unless noted
About 83,000 compounds went through this panel and 20% of them were active in at least one assay; those are over-represented in the sample as a whole.
Give bare numbers, in %.

INPUT: Need growth of `Cc1cc2c(C(C)C)c(O)c(O)c(C=Nc3ccccc3[N+](=O)[O-])c2c(O)c1-c1c(C)cc2c(C(C)C)c(O)c(O)c(C=Nc3ccccc3[N+](=O)[O-])c2c1O` , thanks.
OUTPUT: 43.9

INPUT: What growth value was documented for this molecule, `CN(C)c1ncnc2c1cnn2C` ?
OUTPUT: 99.1

INPUT: Fill blank: measured growth of the molecule `C[n+]1c(/C=C\C=C\N2CCCCC2)sc2ccccc21` is ____.
OUTPUT: 15.4

INPUT: Give the measured growth of `O=C(Nc1ccc([N+](=O)[O-])cc1)C(=O)Nc1ccc([N+](=O)[O-])cc1` .
OUTPUT: 99.6

Return reported growth values for all items listed beneath this line.
1. Cc1cccc(C)c1NC(=S)/N=C\c1c(O)[nH]c(=O)[nH]c1=O
2. CN(C(=S)S(=O)(=O)C12CC3CC(CC(C3)C1)C2)c1ccccc1
3. CC(C)NC(=O)OCc1c(COC(=O)NC(C)C)c(-c2ccc(Cl)cc2)n2c1CCC2
4. O=C(CCl)Nc1ccccc1SCc1cc(Cl)cc2c1OCOC2
5. COc1ccc(C(=O)C(=O)c2ccccc2)cc1
6. Cc1ccc(S(=O)(=O)NC(=O)NCCSSCCNC(=O)NS(=O)(=O)c2ccc(C)cc2)cc1

OUTPUT:
103
102
57.9
99.5
100
99.4

###

- System: MDA-MB-435 melanoma
- procedure.text: NCI-60 one-dose screen, 48 h
- measurement.context: 10 µM unless noted
About 83,000 compounds went through this panel and 20% of them were active in at least one assay; those are over-represented in the sample as a whole. The source made the active and inactive calls. How the source made its calls: active means growth percent below 10; inactive means the rest.
Could you please pick one outcome from this set? 1 = active, -1 = inactive

Recorded results for 5 compounds are shown here.
INPUT: Please share the test call associated with `Cc1cc(CO)c(O)c(CO)c1` .
OUTPUT: -1

INPUT: Write down the call the test reported for this compound. Item: `O=C(c1ccc(Cl)cc1)N1CCCCC1`
OUTPUT: -1

INPUT: Dear colleague, could you share the recorded outcome for `COc1cccc(C(=O)NNC(=O)c2cccc3ccccc23)c1` when you have a moment?
OUTPUT: -1

INPUT: How was `Nc1nc2nnc(-c3ccccc3)c(-c3ccccc3)n2n1` classified in this test?
OUTPUT: -1

INPUT: Hi, sorry to bother you, what did the test record for `Nc1ncc([N+](=O)[O-])cn1` ?
OUTPUT: -1

Further cases:
INPUT: Assay result, entry `CCOc1ccc(C(=O)NCC(C)C)cc1` — outcome?
OUTPUT: -1

INPUT: Which outcome was entered for the compound `Cc1cc2nc(C)c(C)nc2cc1C` in this test?
OUTPUT: -1

INPUT: Outcome logged for `CCOC(=O)C(C#N)=C1CCN(C)CC1` in this assay:
OUTPUT: -1

INPUT: // return assay outcome for CC(=O)NC(CCC(=O)c1ccccc1)C(=O)O (stereo not drawn)
OUTPUT: -1

INPUT: For this compound, state the assay outcome: `Nc1ncnc(Nc2ccccc2)n1`
OUTPUT: -1

###

- Tested on: PC-3 prostate
- procedure.text: NCI-60 one-dose screen, 48 h (100 = growth as untreated, 0 = no growth, -100 = all killed)
- measurement.context: 10 µM unless noted
The panel holds about 83,000 compounds, 20% with a hit somewhere; the sample as a whole holds those more often.
measured.property: growth (%)
Numbers only, in %.

Answered cases to consult:
INPUT: Item `CC(C)c1ccccc1NC(=O)N1CCC(C(C)C)CC1` has what recorded growth?
OUTPUT: 97.9

INPUT: Fill blank: measured growth of the molecule CCCC1OC(c2ccco2)OCC1CC (configuration not stated) is ____.
OUTPUT: 92.5

Each molecule below has a reported value. Please supply its growth.
1. CC(=O)OC(C)c1cccc(C#N)c1 (configuration not stated)
2. CCCCCCCCCCCCCCCCCC(=O)NCCNC(=O)CCCCCCCCCCCCCCCCC
3. Cc1ccc(NC(=S)N2CCOCC2)cc1C

OUTPUT:
96.4
65
104

Would you mind giving growth for every molecule in the list below?
1. COc1cc(-c2ccc(NC(=O)CC(C)=O)c(OC)c2)ccc1NC(=O)CC(C)=O
2. CC(=O)NC(CCc1ccc(Cl)c(Cl)c1)c1cccc(O)c(=O)c1 (configuration not stated)

OUTPUT:
95.1
38.9

###

- Test system: NCI-H322M lung
- procedure.text: NCI-60 one-dose screen, 48 h (100 = growth as untreated, 0 = no growth, -100 = all killed)
- measurement.context: 10 µM unless noted
Compounds without any hit were thinned out: in the full panel of roughly 83,000, 20% have a hit. The source made the active and inactive calls. Rule for the calls: active = growth percent below 10; inactive = the rest.
For each record, write down the corresponding growth.

INPUT: Fill blank: measured growth of the compound `C=COC(=O)C(C)(C)C` is ____.
OUTPUT: 104% (inactive)

INPUT: Data request, read-out growth, for CCCC(OC(C)=O)c1ccc2c(c1)OCO2 (configuration not stated)
OUTPUT: 97.8% (inactive)

INPUT: Would you kindly share the measured growth for `Cc1ccc(NCN2C(=O)c3ccccc3C2=O)c(C)n1` ?
OUTPUT: 103% (inactive)

INPUT: What measured growth goes with `CN(C)c1ccc(/C=C/C(=O)c2ccc(NC(N)=O)cc2)cc1` ?
OUTPUT: 97% (inactive)

Take each entry in turn and give its growth.
1. O=S(=O)(O)c1cccnc1
2. CCOC(=O)/C(C)=C\c1ccc(OC)c(OC)c1
3. C/C(O)=C(/C=N\C(=S)Nc1ccc(S(=O)(=O)Nc2nccs2)cc1)C(=O)Nc1ccccc1C
4. CC(=O)c1ccc(C)cc1
5. COC1OC(C(O)C(O)CO)C(O)C(O)C1O (configuration not stated)
6. c1ccc(-c2ccc3ccccc3c2)cc1
7. O=S(=O)(O)c1ccc(O)c(C2CCCCC2)c1

OUTPUT:
1. 84.6% (inactive)
2. 101% (inactive)
3. 99.7% (inactive)
4. 90% (inactive)
5. 98.1% (inactive)
6. 85% (inactive)
7. 103% (inactive)

Look at each compound and report its growth.
1. CCN1CCCC(N2c3ccccc3Sc3ccccc32)C1 (configuration not stated)
2. CC(=O)NC(O)C(Cl)Cl (configuration not stated)
3. CN(C)c1ncnc2c1cnn2C
4. C[n+]1c(/C=C\C=C\N2CCCCC2)sc2ccccc21
5. COc1ccc(/C=C\C(=O)/C=C/c2ccc(OC)cc2)cc1
6. Cc1c(Cl)cccc1NC(=S)NC(=O)c1ccccc1

OUTPUT:
["86% (inactive)", "98.4% (inactive)", "102% (inactive)", "17.6% (inactive)", "99.6% (inactive)", "97.4% (inactive)"]

For the 5 compounds below, give their growth values.
1. Oc1cccnc1CN1CCCC1
2. COc1cccc(C(=O)NNC(=O)c2cccc3ccccc23)c1
3. C#CCSc1nnnn1-c1ccccc1
4. CCC12OC(COc3ccccc3)CN1CCN2c1ccccc1 (configuration not stated)
5. Oc1ccc2ccccc2c1CN1CCOCC1

OUTPUT:
102% (inactive)
122% (inactive)
98% (inactive)
93.3% [100 µM] (inactive)
112% (inactive)

FYI, the data here is from PubChem BioAssay (NCI).
